Value source: paper PMC9606921

Target: α-glucosidase (Saccharomyces cerevisiae) (Saccharomyces cerevisiae)
Sequence (P53341 whole entry): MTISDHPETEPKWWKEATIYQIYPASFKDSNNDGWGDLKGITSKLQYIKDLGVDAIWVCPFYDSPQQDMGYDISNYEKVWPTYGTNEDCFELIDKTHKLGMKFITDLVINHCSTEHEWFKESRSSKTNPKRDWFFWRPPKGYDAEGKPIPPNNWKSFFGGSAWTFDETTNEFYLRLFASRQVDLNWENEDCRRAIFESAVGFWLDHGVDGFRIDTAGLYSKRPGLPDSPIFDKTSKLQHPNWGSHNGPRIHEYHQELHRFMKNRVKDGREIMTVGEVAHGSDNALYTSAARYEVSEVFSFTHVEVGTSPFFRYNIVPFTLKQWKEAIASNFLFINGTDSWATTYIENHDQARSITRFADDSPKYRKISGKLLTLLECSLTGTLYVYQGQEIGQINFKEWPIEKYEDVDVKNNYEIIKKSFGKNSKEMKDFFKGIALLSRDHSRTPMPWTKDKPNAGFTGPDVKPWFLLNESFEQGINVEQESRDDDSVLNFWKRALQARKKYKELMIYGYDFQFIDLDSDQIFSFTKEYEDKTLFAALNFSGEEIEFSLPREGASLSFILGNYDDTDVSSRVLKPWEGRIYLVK
property_name: IC50 (µM)
Response body: numeric value in µM, unit text excluded.

Let me check: O=c1cc(-c2ccc(O)c(-c3c(O)cc(O)c4c(=O)cc(-c5ccc(O)cc5)oc34)c2)oc2cc(O)cc(O)c12 , system α-glucosidase (Saccharomyces cerevisiae) (Saccharomyces cerevisiae), measured IC50 is 10.3

###

Target protein (sequence): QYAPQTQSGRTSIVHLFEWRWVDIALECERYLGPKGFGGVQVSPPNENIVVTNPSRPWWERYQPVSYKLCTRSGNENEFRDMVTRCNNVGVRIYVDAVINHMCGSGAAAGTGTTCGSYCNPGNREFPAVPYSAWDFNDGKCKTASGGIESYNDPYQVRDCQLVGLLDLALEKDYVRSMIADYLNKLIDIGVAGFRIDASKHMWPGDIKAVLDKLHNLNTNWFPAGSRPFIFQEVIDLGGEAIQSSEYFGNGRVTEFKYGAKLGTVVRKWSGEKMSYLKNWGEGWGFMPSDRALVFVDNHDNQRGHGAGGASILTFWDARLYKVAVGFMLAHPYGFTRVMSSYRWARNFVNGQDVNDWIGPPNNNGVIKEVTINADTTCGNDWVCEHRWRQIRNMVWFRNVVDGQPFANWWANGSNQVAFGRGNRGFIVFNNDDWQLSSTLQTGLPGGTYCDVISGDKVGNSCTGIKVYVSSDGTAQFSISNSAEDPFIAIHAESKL
property_name: IC50 (µM)
Response body: numeric value in µM, unit text excluded.

>>> assay_value("CC1(C)C=C2[C@H]3CC[C@@H]4[C@@]5(C)CCC(=O)C(C)(C)[C@@H]5CC[C@@]4(C)[C@]3(C)CC[C@@]2(C(=O)O)CC1")
44.2

Would you kindly look at the next entry?
Lookup result for O=c1cc(-c2ccc(O)c(-c3c(O)cc(O)c4c(=O)cc(-c5ccc(O)cc5)oc34)c2)oc2cc(O)cc(O)c12 ; measured IC50: 36.8
